Below: a set of entries, each annotated with reported relative viability.
test system: LOU-NH91; assay: relative viability (nuclei count vs DMSO), 5 days (fraction); higher = more cells survive; details: first compound 1 µM
Please reply with the number alone, leaving off any unit.

The following compounds have reported results that may help.
O=c1cc(N2CCOCC2)oc2c(-c3cccc4c3sc3ccccc34)cccc12 + CC(=O)c1c(C)c2cnc(Nc3ccc(N4CCNCC4)cn3)nc2n(C2CCCC2)c1=O [Palbociclib] (partner 0.5 µM)
0.574
O=c1cc(N2CCOCC2)oc2c(-c3cccc4c3sc3ccccc34)cccc12 + NC(=O)Nc1cc(-c2cccc(F)c2)sc1C(=O)N[C@H]1CCCNC1 [AZD7762] (partner 0.2 µM)
0.751
O=c1cc(N2CCOCC2)oc2c(-c3cccc4c3sc3ccccc34)cccc12 + CC(C)C[C@H](NC(=O)[C@H](Cc1ccccc1)NC(=O)c1cnccn1)B(O)O [Bortezomib] (partner 0.002 µM)
0.457

Next compound, please.
For CCN(CC)CCCCNc1ncc2cc(-c3cc(OC)cc(OC)c3)c(NC(=O)NC(C)(C)C)nc2n1 + CC(C)C[C@H](NC(=O)[C@H](Cc1ccccc1)NC(=O)c1cnccn1)B(O)O [Bortezomib] (partner 0.002 µM) on LOU-NH91, measured relative viability was 0.424

----------
tested on: NCI-H2347; test: relative viability (nuclei count vs DMSO), 5 days (fraction); higher = more cells survive; settings: first compound 0.1 µM
Property: relative viability
Please reply with the number alone, leaving off any unit.

The following compounds have reported results that may help.
CCN(CC)CCCCNc1ncc2cc(-c3cc(OC)cc(OC)c3)c(NC(=O)NC(C)(C)C)nc2n1 + Nc1nc2[nH]cc(CCc3ccc(C(=O)N[C@@H](CCC(=O)O)C(=O)O)cc3)c2c(=O)[nH]1 [Pemetrexed] (partner 0.2 µM)
0.423
O=c1cc(N2CCOCC2)oc2c(-c3cccc4c3sc3ccccc34)cccc12 + C[C@@H](Oc1cc(-c2cnn(C3CCNCC3)c2)cnc1N)c1c(Cl)ccc(F)c1Cl [Crizotinib] (partner 1 µM)
0.739
O=c1cc(N2CCOCC2)oc2c(-c3cccc4c3sc3ccccc34)cccc12 + N=C(N)NC(=N)NCCc1ccccc1 [Phenformin] (partner 250 µM)
0.376
O=c1cc(N2CCOCC2)oc2c(-c3cccc4c3sc3ccccc34)cccc12 + O=C(c1cc(Cc2n[nH]c(=O)c3ccccc23)ccc1F)N1CCN(C(=O)C2CC2)CC1 [Olaparib] (partner 8 µM)
0.553
O=c1cc(N2CCOCC2)oc2c(-c3cccc4c3sc3ccccc34)cccc12 + Cc1cc(Nc2cc(N3CCN(C)CC3)nc(Sc3ccc(NC(=O)C4CC4)cc3)n2)n[nH]1 [Tozasertib] (partner 0.1 µM)
0.538

Next compound, please.
For CCN(CC)CCCCNc1ncc2cc(-c3cc(OC)cc(OC)c3)c(NC(=O)NC(C)(C)C)nc2n1 + C[C@@H](Oc1cc(-c2cnn(C3CCNCC3)c2)cnc1N)c1c(Cl)ccc(F)c1Cl [Crizotinib] (partner 1 µM) on NCI-H2347, measured relative viability was 0.677

----------
test system: HCC-44; experiment: relative viability (nuclei count vs DMSO), 5 days (fraction); higher = more cells survive; conditions: first compound 0.253 µM
Note to self: use True only for relative viability readings below 1; a reading exactly at 1 still gets False.

# check: relative viability < 1 for COc1nc(C)cnc1NS(=O)(=O)c1cccnc1-c1ccc(-c2nnco2)cc1 [Zibotentan] + Cc1nc(NC(=O)N2CCC[C@H]2C(N)=O)sc1-c1ccnc(C(C)(C)C(F)(F)F)c1 [Alpelisib] (partner 2 µM)
True

# check: relative viability < 1 for COc1nc(C)cnc1NS(=O)(=O)c1cccnc1-c1ccc(-c2nnco2)cc1 [Zibotentan] + Nc1ncn([C@H]2C[C@H](O)[C@@H](CO)O2)c(=O)n1 [Decitabine] (partner 2 µM)
True

# check: relative viability < 1 for O=c1cc(-c2cccc3c2Sc2ccccc2S3)oc(N2CCOCC2)c1 + C[C@]1(O)C[C@@H](c2nc(-c3ccc4ccc(-c5ccccc5)nc4c3)c3c(N)nccn32)C1 [Linsitinib] (partner 1 µM)
True

# check: relative viability < 1 for COc1nc(C)cnc1NS(=O)(=O)c1cccnc1-c1ccc(-c2nnco2)cc1 [Zibotentan] + CS(=O)(=O)N1CCN(Cc2cc3nc(-c4cccc5[nH]ncc45)nc(N4CCOCC4)c3s2)CC1 [Pictilisib] (partner 1 µM)
True

# check: relative viability < 1 for O=c1cc(-c2cccc3c2Sc2ccccc2S3)oc(N2CCOCC2)c1 + CS(=O)(=O)CCNCc1ccc(-c2ccc3ncnc(Nc4ccc(OCc5cccc(F)c5)c(Cl)c4)c3c2)o1 [Lapatinib] (partner 2 µM)
False

----------
system: HCC-15; experiment: relative viability (nuclei count vs DMSO), 5 days (fraction); higher = more cells survive; settings: first compound 0.01 µM
Property: relative viability
Please reply with the number alone, leaving off any unit.

O=c1cc(N2CCOCC2)oc2c(-c3cccc4c3sc3ccccc34)cccc12 + C[C@@H](Oc1cc(-c2cnn(C3CCNCC3)c2)cnc1N)c1c(Cl)ccc(F)c1Cl [Crizotinib] (partner 1 µM)
0.807
CCN(CC)CCCCNc1ncc2cc(-c3cc(OC)cc(OC)c3)c(NC(=O)NC(C)(C)C)nc2n1 + N=C(N)NC(=N)NCCc1ccccc1 [Phenformin] (partner 250 µM)
0.466

// O=c1cc(N2CCOCC2)oc2c(-c3cccc4c3sc3ccccc34)cccc12 + N=C(N)NC(=N)NCCc1ccccc1 [Phenformin] (partner 250 µM) : relative viability value = 0.47

----------
tested on: NCI-H2347; assay: relative viability (nuclei count vs DMSO), 5 days (fraction); higher = more cells survive; conditions: first compound 20 µM
Note to self: use t only for relative viability readings below 0.6; a reading exactly at 0.6 still gets f.

COCC1(CO)C(=O)C2CCN1CC2 (stereo not given) [PRIMA-1MET] + COc1cc2c(Oc3ccc(NC(=O)C4(C(=O)Nc5ccc(F)cc5)CC4)cc3F)ccnc2cc1OCCCN1CCOCC1 [Foretinib] (partner 0.25 µM)
f
COCC1(CO)C(=O)C2CCN1CC2 (stereo not given) [PRIMA-1MET] + Nc1ncn([C@H]2C[C@H](O)[C@@H](CO)O2)c(=O)n1 [Decitabine] (partner 2 µM)
f
COCC1(CO)C(=O)C2CCN1CC2 (stereo not given) [PRIMA-1MET] + C[C@@H](Oc1cc(-c2cnn(C3CCNCC3)c2)cnc1N)c1c(Cl)ccc(F)c1Cl [Crizotinib] (partner 1 µM)
f
COCC1(CO)C(=O)C2CCN1CC2 (stereo not given) [PRIMA-1MET] + O=C(c1cc(Cc2n[nH]c(=O)c3ccccc23)ccc1F)N1CCN(C(=O)C2CC2)CC1 [Olaparib] (partner 8 µM)
t

Would you kindly look at the next entry?
# check: relative viability < 0.6 for COCC1(CO)C(=O)C2CCN1CC2 (stereo not given) [PRIMA-1MET] + Cc1nc(NC(=O)N2CCC[C@H]2C(N)=O)sc1-c1ccnc(C(C)(C)C(F)(F)F)c1 [Alpelisib] (partner 2 µM)
f

----------
Below: a set of entries, each annotated with reported relative viability.
tested on: NCI-H2126; assay: relative viability (nuclei count vs DMSO), 5 days (fraction); higher = more cells survive; conditions: first compound 0.01 µM

For O=c1cc(N2CCOCC2)oc2c(-c3cccc4c3sc3ccccc34)cccc12 + CCNC(=O)c1noc(-c2cc(C(C)C)c(O)cc2O)c1-c1ccc(CN2CCOCC2)cc1 [Luminespib] (partner 0.01 µM) on NCI-H2126, measured relative viability was 0.923

For CCN(CC)CCCCNc1ncc2cc(-c3cc(OC)cc(OC)c3)c(NC(=O)NC(C)(C)C)nc2n1 + CC1(C)CCC(c2ccc(Cl)cc2)=C(CN2CCN(c3ccc(C(=O)NS(=O)(=O)c4ccc(N[C@H](CCN5CCOCC5)CSc5ccccc5)c(S(=O)(=O)C(F)(F)F)c4)cc3)CC2)C1 [Navitoclax] (partner 0.5 µM) on NCI-H2126, measured relative viability was 0.904

For CCN(CC)CCCCNc1ncc2cc(-c3cc(OC)cc(OC)c3)c(NC(=O)NC(C)(C)C)nc2n1 + C[C@@H](Oc1cc(-c2cnn(C3CCNCC3)c2)cnc1N)c1c(Cl)ccc(F)c1Cl [Crizotinib] (partner 1 µM) on NCI-H2126, measured relative viability was 1.08

For O=c1cc(N2CCOCC2)oc2c(-c3cccc4c3sc3ccccc34)cccc12 + CC1(C)CCC(c2ccc(Cl)cc2)=C(CN2CCN(c3ccc(C(=O)NS(=O)(=O)c4ccc(N[C@H](CCN5CCOCC5)CSc5ccccc5)c(S(=O)(=O)C(F)(F)F)c4)cc3)CC2)C1 [Navitoclax] (partner 0.5 µM) on NCI-H2126, measured relative viability was 0.845

----------
tested on: NCI-H2405; assay: relative viability (nuclei count vs DMSO), 5 days (fraction); higher = more cells survive; settings: first compound 0.6325 µM
Property: relative viability
Please reply with the number alone, leaving off any unit.

The following compounds have reported results that may help.
COCC1(CO)C(=O)C2CCN1CC2 (stereo unspecified) [PRIMA-1MET] + CCNC(=O)c1noc(-c2cc(C(C)C)c(O)cc2O)c1-c1ccc(CN2CCOCC2)cc1 [Luminespib] (partner 0.01 µM)
0.598
COCC1(CO)C(=O)C2CCN1CC2 (stereo unspecified) [PRIMA-1MET] + Cc1nc(Nc2ncc(C(=O)Nc3c(C)cccc3Cl)s2)cc(N2CCN(CCO)CC2)n1 [Dasatinib] (partner 0.075 µM)
0.199
COCC1(CO)C(=O)C2CCN1CC2 (stereo unspecified) [PRIMA-1MET] + O=C(c1cc(Cc2n[nH]c(=O)c3ccccc23)ccc1F)N1CCN(C(=O)C2CC2)CC1 [Olaparib] (partner 8 µM)
0.986

// COCC1(CO)C(=O)C2CCN1CC2 (stereo unspecified) [PRIMA-1MET] + CC(=O)Nc1cccc(-n2c(=O)n(C3CC3)c(=O)c3c(Nc4ccc(I)cc4F)n(C)c(=O)c(C)c32)c1 [Trametinib] (partner 0.02 µM) : relative viability value = 0.598

// COCC1(CO)C(=O)C2CCN1CC2 (stereo unspecified) [PRIMA-1MET] + COc1cc2c(Oc3ccc(NC(=O)C4(C(=O)Nc5ccc(F)cc5)CC4)cc3F)ccnc2cc1OCCCN1CCOCC1 [Foretinib] (partner 0.25 µM) : relative viability value = 1.03

// COCC1(CO)C(=O)C2CCN1CC2 (stereo unspecified) [PRIMA-1MET] + Cc1cc(Nc2cc(N3CCN(C)CC3)nc(Sc3ccc(NC(=O)C4CC4)cc3)n2)n[nH]1 [Tozasertib] (partner 0.1 µM) : relative viability value = 0.812
